Target: Thrombin (Homo sapiens) (UniProt P00734+P00734)
Assay: FP
Settings: Trp at library position 7, Phe at position 5, C12 at position 4 (unnatural monomers); with 0.1 mg/mL salmon sperm DNA, N=3; unit given as nmol
quantity: Kd (nM)
// return numeric value only (unit: nM, not printed)

# return recorded Kd for entry GGTPTGGPHECTGGTTGGG [Aptamer2] 10

###

Biological target: Thrombin (Homo sapiens) (UniProt P00734+P00734)
Assay: FP
Settings: Nap unnatural monomer at library position 1 (3' end); unit given as nmol; Aptamer4/5 naming swapped in FIG. 12, Table 9 sequence used
quantity: pKd
Friendly reminder that pKd comes from taking -log10 of the concentration in mol/L.

Identify measured pKd associated with GGTTGGTGTGGTTGGNAP [Aptamer4 of Table 9 (Nap at position 1; Aptamer5 in FIG. 12)] 7.62
